- Tested on: Bacillus subtilis
- protocol_text: cleaved RNA product abundance (RNA/gDNA barcode ratio) relative to median wild-type variant (ratio to wild type); higher = more accumulation of the downstream cleavage product
- conditions: experiment (reporter, strain, medium): exp 4a: truncated aprE reporter, strain BJT201 with 2% xylose (RNase J1 expressed); cleavage site: cggR-gapA (positions -7 to +36 mutated)
measurement_name: cleaved RNA product abundance
# answer = number (no unit)

ACAGACGAAGGAGCCGCAAAGAAGTTATTAAGCGATGAATAATCCCTCTATATAAATATCTCTCACTTATTTAAA | 0.0811
ACAGACGAAGGAGCCGCAAAGAAGTTATTAAGGGATGAATAATTCCTCAATATACATATCTCTCACTTATTTAAA | 0.498
ACAGACGAAGGAGCCGCAAATAAGTTATTAAGGGATCAATAATCCCTCAATATAAATATCTCTCACTTATTTAAA | 0.721

# next sequence below
In: Give cleaved RNA product abundance (Bacillus subtilis) of the following sequence: "ACAGACGAAGGAGCCGCAAAGAAGTTATTAAGTGATGAATAACCCCTCAATATAAATATCTCTCACTTATTTAAA"
Out: 0.109
